Reference source for all entries: PubChem BioAssay AID1963873

# System: 276233-004-R-J1-PDC KRAS spheroids with HUVEC/MSC, viability
# Test method notes: Anticancer human tumor 276233-004-R-J1-PDC patient-derived colon adenocarcinoma cell line growth inhibition [KRAS2]
# Cond: curve of first compound; second compound 3.16 µM
Hi! Just check whether IC50 is below 2000 nM. Below gives true (1), equal or above gives false (0).

Molecule	Classification
COc1cc(Nc2ncc3c(n2)-c2ccc(Cl)cc2C(c2c(F)cccc2OC)=NC3)ccc1C(=O)O + C=CC(=O)N1CCN(c2nc(=O)n(-c3c(C)ccnc3C(C)C)c3nc(-c4c(O)cccc4F)c(F)cc23)C(C)C1	false (0)
COc1cc(Nc2ncc3c(n2)-c2ccc(Cl)cc2C(c2c(F)cccc2OC)=NC3)ccc1C(=O)O + C=CC(=O)N1CCN(c2nc(OCC3CCCN3C)nc3c2CCN(c2cccc4cccc(C)c24)C3)CC1CC#N	false (0)
CCN1CCN(Cc2ccc(Nc3ncc(F)c(-c4cc(F)c5nc(C)n(C(C)C)c5c4)n3)nc2)CC1 + CNCc1ccccc1-c1csc(C(C)Nc2nc(C)nc3cc(OC)c(OC)cc23)c1	true (1)
COc1cc(Nc2ncc3c(n2)-c2ccc(Cl)cc2C(c2c(F)cccc2OC)=NC3)ccc1C(=O)O + COc1cc2nc(C)nc(NC(C)c3cc(N)cc(C(F)(F)F)c3)c2cc1OC1CCOC1	false (0)
COC(=O)c1ccc2c(C(=Nc3ccc(N(C)C(=O)CN4CCN(C)CC4)cc3)c3ccccc3)c(O)[nH]c2c1 + C=CC(=O)N1CCN(c2nc(OCC3CCCN3C)nc3c2CCN(c2cccc4cccc(C)c24)C3)CC1CC#N	true (1)
CN(C)C/C=C/C(=O)Nc1cc2c(Nc3ccc(F)c(Cl)c3)ncnc2cc1O[C@H]1CCOC1 + C=CC(=O)N1CCN(c2nc(OCC3CCCN3C)nc3c2CCN(c2cccc4cccc(C)c24)C3)CC1CC#N	true (1)
CC1(C)CCC(CN2CCN(c3ccc(C(=O)NS(=O)(=O)c4ccc(NCC5CCOCC5)c([N+](=O)[O-])c4)c(Oc4cnc5[nH]ccc5c4)c3)CC2)=C(c2ccc(Cl)cc2)C1 + CC1OCC2(CCN(c3cnc(Sc4ccnc(N)c4Cl)c(N)n3)CC2)C1N	false (0)
COC(=O)c1ccc2c(C(=Nc3ccc(N(C)C(=O)CN4CCN(C)CC4)cc3)c3ccccc3)c(O)[nH]c2c1 + COc1cc2nc(C)nc(NC(C)c3cc(N)cc(C(F)(F)F)c3)c2cc1OC1CCOC1	false (0)

Please turn your attention to the following entry.
Prompt: Just wondering, is IC50 of CC(C)NCC(C(=O)N1CCN(c2ncnc3c2C(C)CC3O)CC1)c1ccc(Cl)cc1 (stereo not given) + COc1cc2nc(C)nc(NC(C)c3cc(N)cc(C(F)(F)F)c3)c2cc1OC1CCOC1 below 2000 nM?
Completion: true (1)

* * *

# System: 276233-004-R-J1-PDC KRAS spheroids with HUVEC/MSC, viability
# Test method notes: Anticancer human tumor 276233-004-R-J1-PDC cell line growth inhibition [KRAS2];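 further: cells exposed to agents for seven days before viability read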;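 on viability, T/C: 100% = DMSO vehicle control wells and lower values mean fewer viable cells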
# Cond: second compound 3.16 µM; first compound 0.000316 µM; stronger effect = lower value
Measured endpoint: viability, T/C (%)
Report the figure in % without appending any unit label.

Study these solved cases before continuing.
Compound	Experimental target	viability, T/C, %
CC(=O)Nc1cccc(-n2c(=O)n(C3CC3)c(=O)c3c(Nc4ccc(I)cc4F)n(C)c(=O)c(C)c32)c1 + CC1OCC2(CCN(c3cnc(Sc4ccnc(N)c4Cl)c(N)n3)CC2)C1N	276233-004-R-J1-PDC KRAS spheroids with HUVEC/MSC, viability	31.9
Cn1ncnc1[C@H]1c2n[nH]c(=O)c3cc(F)cc(c23)N[C@@H]1c1ccc(F)cc1 + C=CC(=O)N1CCN(c2nc(OCC3CCCN3C)nc3c2CCN(c2cccc4cccc(C)c24)C3)CC1CC#N	276233-004-R-J1-PDC KRAS spheroids with HUVEC/MSC, viability	74.9
Cn1ncnc1[C@H]1c2n[nH]c(=O)c3cc(F)cc(c23)N[C@@H]1c1ccc(F)cc1 + C=CC(=O)N1CCN(c2nc(=O)n(-c3c(C)ccnc3C(C)C)c3nc(-c4c(O)cccc4F)c(F)cc23)C(C)C1	276233-004-R-J1-PDC KRAS spheroids with HUVEC/MSC, viability	98.4

// switching to the query compound
The value of viability, T/C measured for the compound CC(=O)Nc1cccc(-n2c(=O)n(C3CC3)c(=O)c3c(Nc4ccc(I)cc4F)n(C)c(=O)c(C)c32)c1 + C=CC(=O)N1CCN(c2nc(OCC3CCCN3C)nc3c2CCN(c2cccc4cccc(C)c24)C3)CC1CC#N turned out to be 32.3
